Target: human wild type FGFR3 (Homo sapiens (Human))
Sequence (P22607 23-806): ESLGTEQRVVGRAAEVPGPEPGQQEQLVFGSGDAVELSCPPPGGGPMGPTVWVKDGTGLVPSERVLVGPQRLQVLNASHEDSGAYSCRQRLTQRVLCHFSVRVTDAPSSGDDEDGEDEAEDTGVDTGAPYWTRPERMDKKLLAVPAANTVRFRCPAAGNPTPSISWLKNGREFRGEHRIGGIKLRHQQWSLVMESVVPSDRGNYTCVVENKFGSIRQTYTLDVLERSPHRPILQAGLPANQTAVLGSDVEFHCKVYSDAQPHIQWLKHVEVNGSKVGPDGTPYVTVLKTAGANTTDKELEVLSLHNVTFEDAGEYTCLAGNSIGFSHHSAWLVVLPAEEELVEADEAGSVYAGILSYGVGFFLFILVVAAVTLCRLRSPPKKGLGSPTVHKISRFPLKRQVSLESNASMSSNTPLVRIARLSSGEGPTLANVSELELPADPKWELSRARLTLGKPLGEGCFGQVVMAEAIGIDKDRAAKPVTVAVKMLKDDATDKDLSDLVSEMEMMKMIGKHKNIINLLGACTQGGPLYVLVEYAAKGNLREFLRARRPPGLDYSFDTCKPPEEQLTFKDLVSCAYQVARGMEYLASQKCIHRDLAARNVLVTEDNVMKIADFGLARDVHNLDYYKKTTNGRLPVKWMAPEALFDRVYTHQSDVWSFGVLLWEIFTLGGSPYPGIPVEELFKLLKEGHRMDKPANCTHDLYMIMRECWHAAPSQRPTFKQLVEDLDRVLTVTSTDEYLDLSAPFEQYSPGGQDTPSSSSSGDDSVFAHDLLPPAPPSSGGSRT
Test: FGFR3 pERK Cell Assay
Type: cell-based
Conditions: HEK-293 cells, 1 hour compound, 100 ng/ml human FGF-acidic; maximum concentration 5 μM
measured.parameter: IC50 (nM)
Write the answer as a number in nM, unit excluded.

*Q* What measured IC50 is associated with COc1cc(Nc2ccc3ncc(-c4cnn(C5CCN(C(=O)C6(F)CN(C(=O)/C=C/CN(C)C)C6)CC5)c4C)nc3c2)cc(OC)c1 [Example 17] on human wild type FGFR3 (Homo sapiens (Human))?
*A* 61

*Q* What measured IC50 is associated with COc1cc(Nc2ccc3ncc(-c4cn(C5CCN(C(=O)C6(F)CN(C(=O)/C=C/CN(C)C)C6)CC5)nc4C)nc3c2)cc(OC)c1 [Example 22] on human wild type FGFR3 (Homo sapiens (Human))?
*A* 113

*Q* What measured IC50 is associated with C=CC(=O)N1CC(CN2CCC(n3cc(-c4cnc5ccc(Nc6cc(OC)cc(OC)c6)cc5n4)cn3)CC2)(OC)C1 [Example 29] on human wild type FGFR3 (Homo sapiens (Human))?
*A* 25

*Q* What measured IC50 is associated with C=CC(=O)N1CC[C@@H](C(=O)N2CCC(n3cc(-c4cnc5ccc(Nc6cc(OC)cc(OC)c6)cc5n4)cn3)CC2)C1 [Example 2] on human wild type FGFR3 (Homo sapiens (Human))?
*A* 207

*Q* What measured IC50 is associated with C=CC(=O)N1CCC(C(=O)N2CCC(n3cc(-c4cnc5ccc(Nc6cc(OC)cc(OC)c6)cc5n4)cn3)CC2)CC1 [Example 3] on human wild type FGFR3 (Homo sapiens (Human))?
*A* 135

*Q* What measured IC50 is associated with C=CC(=O)N1CC(C(=O)N2CCN(c3ccc(-c4cnc5ccc(Nc6cc(OC)cc(OC)c6)cc5n4)cn3)CC2)C1 [Example 5] on human wild type FGFR3 (Homo sapiens (Human))?
*A* 317

*Q* What measured IC50 is associated with C=CC(=O)N1CC(OC)(C(=O)N2CCC(n3cc(-c4cnc5ccc(Nc6cc(OC)cc(OC)c6)cc5n4)cn3)CC2)C1 [Example 24] on human wild type FGFR3 (Homo sapiens (Human))?
*A* 19

###

Target: human wild type FGFR2 (Homo sapiens (Human), UniProt P21802)
Sequence (P21802 22-821): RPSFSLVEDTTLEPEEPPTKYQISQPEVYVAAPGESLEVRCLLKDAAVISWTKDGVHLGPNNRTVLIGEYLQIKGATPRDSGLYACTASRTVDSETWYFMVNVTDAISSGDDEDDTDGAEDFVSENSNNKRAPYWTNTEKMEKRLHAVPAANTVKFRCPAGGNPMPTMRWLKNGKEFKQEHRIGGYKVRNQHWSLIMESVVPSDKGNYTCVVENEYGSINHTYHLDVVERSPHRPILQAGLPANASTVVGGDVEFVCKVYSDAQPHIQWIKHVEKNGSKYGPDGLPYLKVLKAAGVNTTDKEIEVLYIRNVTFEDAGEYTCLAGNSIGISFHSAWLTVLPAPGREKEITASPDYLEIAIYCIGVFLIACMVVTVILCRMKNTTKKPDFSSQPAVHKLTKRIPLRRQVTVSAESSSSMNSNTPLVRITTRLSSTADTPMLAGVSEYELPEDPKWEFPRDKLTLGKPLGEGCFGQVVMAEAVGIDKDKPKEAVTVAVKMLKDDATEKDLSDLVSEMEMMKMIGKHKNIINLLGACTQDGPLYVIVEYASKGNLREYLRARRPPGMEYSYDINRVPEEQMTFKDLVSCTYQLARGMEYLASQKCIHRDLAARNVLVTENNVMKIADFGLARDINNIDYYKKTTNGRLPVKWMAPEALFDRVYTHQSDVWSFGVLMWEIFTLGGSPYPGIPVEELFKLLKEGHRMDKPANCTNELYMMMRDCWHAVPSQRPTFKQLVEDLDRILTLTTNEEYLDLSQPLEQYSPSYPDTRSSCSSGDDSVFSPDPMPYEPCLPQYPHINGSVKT
Assay: FGFR2 pFGFR Cell Assay
Assay type: cell-based
Settings: HEK-293 cells, 1 hour compound, 30 ng/ml human FGF-acidic, ELISA
Would you mind telling me the reported IC50 of each entry?
Write the answer as a number in nM, unit excluded.

*Q* Can you look up the measured IC50 of "C=CC(=O)N1CC(O)(C(=O)N2CCC(n3cc(-c4cnc5ccc(N(C)c6cc(OC)cc(OC)c6)cc5n4)cn3)CC2)C1" for me?
*A* 37

*Q* Can you look up the measured IC50 of "C#CCN(c1cc(OC)cc(OC)c1)c1ccc2ncc(-c3cnn(C4CCN(C(=O)C5(F)CN(C(=O)/C=C/CN(C)C)C5)CC4)c3)nc2c1" for me?
*A* 6

*Q* Can you look up the measured IC50 of "COc1cc(Nc2ccc3ncc(-c4cnn(C5CCN(C(=O)C6(F)CN(C(=O)/C=C/CN(C)C)C6)CC5)c4)nc3c2)cc(OC)c1" for me?
*A* 28

*Q* Can you look up the measured IC50 of "C=CC(=O)N1CC(CN2CCC(n3cc(-c4cnc5ccc(Nc6cc(OC)cc(OC)c6)cc5n4)cn3)CC2)C1" for me?
*A* 62

###

Target: FGFR3 (Homo sapiens (Human), UniProt P22607)
Sequence (P22607 449-759): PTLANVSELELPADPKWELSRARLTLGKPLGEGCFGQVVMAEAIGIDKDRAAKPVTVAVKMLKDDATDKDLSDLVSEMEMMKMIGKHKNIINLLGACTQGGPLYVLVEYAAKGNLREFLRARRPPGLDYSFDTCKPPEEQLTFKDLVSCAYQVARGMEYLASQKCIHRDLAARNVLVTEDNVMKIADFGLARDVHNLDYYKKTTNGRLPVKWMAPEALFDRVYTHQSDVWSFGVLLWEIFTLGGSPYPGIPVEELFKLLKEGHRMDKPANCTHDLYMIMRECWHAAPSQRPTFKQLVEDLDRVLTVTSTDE
Test: LC/MS FGFR3 kobs assay (covalent modification)
Type: biochemical
Settings: 500 nM FGFR3, 3 μM compound
Use 0.03 min⁻¹ as the dividing line for FGFR3 Enz kobs, with the line itself on the y side and lower values as n.

*Q* Reported FGFR3 Enz kobs reaches at least 0.03 min⁻¹ for "COc1cc(Nc2ccc3ncc(-c4cnn([C@@H]5CCN(C(=O)C6(F)CN(C(=O)/C=C/CN(C)C)C6)C5)c4)nc3c2)cc(OC)c1" ?
*A* y

*Q* Reported FGFR3 Enz kobs reaches at least 0.03 min⁻¹ for "C=CC(=O)N1CC(F)(C(=O)N2CCC(n3cc(-c4cnc5ccc(Nc6cc(OC)cc(OC)c6)cc5n4)cn3)CC2)C1" ?
*A* y

*Q* Reported FGFR3 Enz kobs reaches at least 0.03 min⁻¹ for "C=CC(=O)N1CC[C@@H](C(=O)N2CCC(n3cc(-c4cnc5ccc(Nc6cc(OC)cc(OC)c6)cc5n4)cn3)CC2)C1" ?
*A* n

*Q* Reported FGFR3 Enz kobs reaches at least 0.03 min⁻¹ for "COc1cc(Nc2ccc3ncc(-c4cnc(N5CCN(C(=O)C6(F)CN(C(=O)/C=C/CN(C)C)C6)CC5)cc4C)nc3c2)cc(OC)c1" ?
*A* y

*Q* Reported FGFR3 Enz kobs reaches at least 0.03 min⁻¹ for "C=CC(=O)N1CC(C(=O)N2CC[C@@H](n3cc(-c4cnc5ccc(Nc6cc(OC)cc(OC)c6)cc5n4)cn3)C2)C1" ?
*A* n

*Q* Reported FGFR3 Enz kobs reaches at least 0.03 min⁻¹ for "C=CC(=O)N1CC(CN2CCC(n3cc(-c4cnc5ccc(Nc6cc(OC)cc(OC)c6)cc5n4)cn3)CC2)(OC)C1" ?
*A* n

*Q* Reported FGFR3 Enz kobs reaches at least 0.03 min⁻¹ for "COc1cc(Nc2ccc3ncc(-c4cnn([C@@H]5CCN(C(=O)C6CN(C(=O)/C=C/CN(C)C)C6)C5)c4)nc3c2)cc(OC)c1" ?
*A* n

*Q* Reported FGFR3 Enz kobs reaches at least 0.03 min⁻¹ for "C#CCN(c1cc(OC)cc(OC)c1)c1ccc2ncc(-c3cnn(C4CCN(C(=O)C5(F)CN(C(=O)/C=C/CN(C)C)C5)CC4)c3)nc2c1" ?
*A* y

*Q* Reported FGFR3 Enz kobs reaches at least 0.03 min⁻¹ for "C=CC(=O)N1CC(C(=O)N2CCC(n3cc(-c4cnc5ccc(Nc6cc(OC)cc(OC)c6)cc5n4)cn3)CC2)C1" ?
*A* n

*Q* Reported FGFR3 Enz kobs reaches at least 0.03 min⁻¹ for "C=CC(=O)N1CC(C(=O)N2CCN(c3cccc(-c4cnc5ccc(Nc6cc(OC)cc(OC)c6)cc5n4)c3)CC2)C1" ?
*A* n

*Q* Reported FGFR3 Enz kobs reaches at least 0.03 min⁻¹ for "COc1cc(Nc2ccc3ncc(-c4c(C)nn(C5CCN(C(=O)C6(F)CN(C(=O)/C=C/CN(C)C)C6)CC5)c4C)nc3c2)cc(OC)c1" ?
*A* y

*Q* Reported FGFR3 Enz kobs reaches at least 0.03 min⁻¹ for "COc1cc(Nc2ccc3ncc(-c4cnn(C5CCN(C(=O)C6CN(C(=O)/C=C/CN(C)C)C6)CC5)c4)nc3c2)cc(OC)c1" ?
*A* n

*Q* Reported FGFR3 Enz kobs reaches at least 0.03 min⁻¹ for "C=CC(=O)N1CCC(C(=O)N2CCC(n3cc(-c4cnc5ccc(Nc6cc(OC)cc(OC)c6)cc5n4)cn3)CC2)CC1" ?
*A* n

*Q* Reported FGFR3 Enz kobs reaches at least 0.03 min⁻¹ for "COc1cc(Nc2ccc3ncc(-c4ccc(N5CCN(C(=O)C6(F)CN(C(=O)/C=C/CN(C)C)C6)CC5)nc4C)nc3c2)cc(OC)c1" ?
*A* n

*Q* Reported FGFR3 Enz kobs reaches at least 0.03 min⁻¹ for "COc1cc(Nc2ccc3ncc(-c4cn(C5CCN(C(=O)C6(F)CN(C(=O)/C=C/CN(C)C)C6)CC5)nc4C)nc3c2)cc(OC)c1" ?
*A* y

*Q* Reported FGFR3 Enz kobs reaches at least 0.03 min⁻¹ for "C=CC(=O)N1CC(OC)(C(=O)N2CCC(n3cc(-c4cnc5ccc(Nc6cc(OC)cc(OC)c6)cc5n4)cn3)CC2)C1" ?
*A* n

*Q* Reported FGFR3 Enz kobs reaches at least 0.03 min⁻¹ for "COc1cc(Nc2ccc3ncc(-c4ccc(N5CCN(C(=O)C6CN(C(=O)/C=C/CN(C)C)C6)CC5)nc4)nc3c2)cc(OC)c1" ?
*A* y

*Q* Reported FGFR3 Enz kobs reaches at least 0.03 min⁻¹ for "C=CC(=O)N1CC(C(=O)N2CCC(n3ncc(-c4cnc5ccc(Nc6cc(OC)cc(OC)c6)cc5n4)c3C)CC2)C1" ?
*A* n

*Q* Reported FGFR3 Enz kobs reaches at least 0.03 min⁻¹ for "C=CC(=O)N1CC(F)(C(=O)N2CCN(c3cc(C)c(-c4cnc5ccc(Nc6cc(OC)cc(OC)c6)cc5n4)cn3)CC2)C1" ?
*A* n

*Q* Reported FGFR3 Enz kobs reaches at least 0.03 min⁻¹ for "C=CC(=O)N1CC(C(=O)N2CC(n3cc(-c4cnc5ccc(Nc6cc(OC)cc(OC)c6)cc5n4)cn3)C2)C1" ?
*A* n

*Q* Reported FGFR3 Enz kobs reaches at least 0.03 min⁻¹ for "C=CC(=O)N1CC(C#N)(C(=O)N2CCC(n3cc(-c4cnc5ccc(Nc6cc(OC)cc(OC)c6)cc5n4)cn3)CC2)C1" ?
*A* y

*Q* Reported FGFR3 Enz kobs reaches at least 0.03 min⁻¹ for "COc1cc(Nc2ccc3ncc(-c4cnn(C5CCN(C(=O)C6(F)CN(C(=O)/C=C/CN(C)C)C6)CC5)c4)nc3c2)cc(OC)c1" ?
*A* y

*Q* Reported FGFR3 Enz kobs reaches at least 0.03 min⁻¹ for "C=CC(=O)N1CC(C(=O)N2CCN(c3ccc(-c4cnc5ccc(Nc6cc(OC)cc(OC)c6)cc5n4)cn3)CC2)C1" ?
*A* n

*Q* Reported FGFR3 Enz kobs reaches at least 0.03 min⁻¹ for "COc1cc(Nc2ccc3ncc(-c4ccc(N5CCN(C(=O)C6(F)CN(C(=O)/C=C/CN(C)C)C6)CC5)nc4)nc3c2)cc(OC)c1" ?
*A* y

*Q* Reported FGFR3 Enz kobs reaches at least 0.03 min⁻¹ for "COc1cc(Nc2ccc3ncc(-c4cnn(C5CCN(C(=O)C6(C#N)CN(C(=O)/C=C/CN(C)C)C6)CC5)c4)nc3c2)cc(OC)c1" ?
*A* y

*Q* Reported FGFR3 Enz kobs reaches at least 0.03 min⁻¹ for "C=CC(=O)N1CC(O)(C(=O)N2CCC(n3cc(-c4cnc5ccc(Nc6cc(OC)cc(OC)c6)cc5n4)cn3)CC2)C1" ?
*A* n

Measured values drawn from patent US12351571B2 for this set.
